The reported measurements were obtained from patent US20140295512A1.

Assay: KARI assay of purified S. exigua KARI and variants with NADPH (Examples 6-9)
Type: biochemical
Procedure: S. exigua KARI activity or activities of its variants were assayed kinetically by monitoring the decrease in NADPH or NADH concentration by measuring the change in absorbance at 340 nm. […] Michaelis-Menten constants of the cofactors were determined with varying concentrations of NADPH (200-12 μM final) or NADH (200-6 μM final).
PROPERTY LABEL: kcat NADPH (s⁻¹)
Write the answer as a number in s⁻¹, unit excluded.

Data point: Se1_KARI^1A8: S. exigua KARI variant G60V, I95V, V99L (protein, UniProt D0WGK0 1-342, looked up, variant G60V I95V V99L) Ketol-acid reductoisomerase …: MSVKTKEKEMAVTILYEQDVDPKVIQGLKVGIIGYGSQGHAHALNLMDSGVDVRVGLREVSSSWKTAEEAGLKVTDMDTAAEEADVIMVLVPDEVQPKLYQEHIAAHLKAGNTLAFAHGFNIHYGYIVPPEDVNVIMCAPKGPGHIVRRQFTEGSGVPDLACVQQDATGNAWDIVLSYCWGVGGARSGIIKATFAEETEEDLFGEQAVLCGGLVELVKAGFETLTEAGYPPELAYFECYHEMKMIVDLMYESGIHFMNYSISNTAEYGEYYAGPKVINEQSREAMKEILKRIQDGSFAQEFVDDCNNGHKRLLEQREAINTHPIETTGAQIRSMFSWIKKED ; kcat NADPH = 0.79
